# Lookup of reported pKd keyed by entry
- system_tested: T1, human serum albumin (human, UniProt P02768 25-609)
- T1 construct: also called HSA
- assay_comment: SPR pH 7.4
# reply with the number alone; pKd is -log10 of concentration in mol/L

[
  {
    "binder": "T026301198 (bispecific antibody, name in Kabat numbering, bispecific ISVD construct; also called T0263018B11(E1D, W100cS)-35GS-ALB23002-A) DVQLVESGGGVVQPGGSLRLSCAASGFTFSSYAMYWVRQAPGKGLEWVSAISSGGGSTDYADSVKGRFTISRDNSKNTLYLQMNSLRPEDTALYYCAADTLYTSLTSYSYWGQGTLVTVSSGGGGSGGGGSGGGGSGGGGSGGGGSGGGGSGGGGSEVQLVESGGGVVQPGGSLRLSCAASGFTFRSFGMSWVRQAPGKGPEWVSSISGSGSDTLYADSVKGRFTISRDNSKNTLYLQMNSLRPEDTALYYCTIGGSLSRSSQGTLVTVSSA",
    "pKd": 7.82
  }
]

// lookup pKd for T026301195 (bispecific antibody, name in Kabat numbering, bispecific ISVD construct; also called T0263018B11(E1D, S31E, A33D, W100cS)-35GS-ALB23002-A) DVQLVESGGGVVQPGGSLRLSCAASGFTFSEYDMYWVRQAPGKGLEWVSAISSGGGSTDYADSVKGRFTISRDNSKNTLYLQMNSLRPEDTALYYCAADTLYTSLTSYSYWGQGTLVTVSSGGGGSGGGGSGGGGSGGGGSGGGGSGGGGSGGGGSEVQLVESGGGVVQPGGSLRLSCAASGFTFRSFGMSWVRQAPGKGPEWVSSISGSGSDTLYADSVKGRFTISRDNSKNTLYLQMNSLRPEDTALYYCTIGGSLSRSSQGTLVTVSSA 7.89

Reported pKd for T026301196 (bispecific antibody, name in Kabat numbering, bispecific ISVD construct; also called T0263018B11(E1D, G26T, S52aQ, W100cS)-35GS-ALB23002-A) DVQLVESGGGVVQPGGSLRLSCAASTFTFSSYAMYWVRQAPGKGLEWVSAISQGGGSTDYADSVKGRFTISRDNSKNTLYLQMNSLRPEDTALYYCAADTLYTSLTSYSYWGQGTLVTVSSGGGGSGGGGSGGGGSGGGGSGGGGSGGGGSGGGGSEVQLVESGGGVVQPGGSLRLSCAASGFTFRSFGMSWVRQAPGKGPEWVSSISGSGSDTLYADSVKGRFTISRDNSKNTLYLQMNSLRPEDTALYYCTIGGSLSRSSQGTLVTVSSA : what is it? 7.82

Which pKd is listed for T026301192 (bispecific antibody, name in Kabat numbering, bispecific ISVD construct; also called T0263018B11(E1D, S100E)-35GS-ALB23002-A) DVQLVESGGGVVQPGGSLRLSCAASGFTFSSYAMYWVRQAPGKGLEWVSAISSGGGSTDYADSVKGRFTISRDNSKNTLYLQMNSLRPEDTALYYCAADTLYTELTWYSYWGQGTLVTVSSGGGGSGGGGSGGGGSGGGGSGGGGSGGGGSGGGGSEVQLVESGGGVVQPGGSLRLSCAASGFTFRSFGMSWVRQAPGKGPEWVSSISGSGSDTLYADSVKGRFTISRDNSKNTLYLQMNSLRPEDTALYYCTIGGSLSRSSQGTLVTVSSA ? 7.92

Value lookup for pKd; key = T026301197 (bispecific antibody, name in Kabat numbering, bispecific ISVD construct; also called T0263018B11(E1D, S52aQ)-35GS-ALB23002-A) DVQLVESGGGVVQPGGSLRLSCAASGFTFSSYAMYWVRQAPGKGLEWVSAISQGGGSTDYADSVKGRFTISRDNSKNTLYLQMNSLRPEDTALYYCAADTLYTSLTWYSYWGQGTLVTVSSGGGGSGGGGSGGGGSGGGGSGGGGSGGGGSGGGGSEVQLVESGGGVVQPGGSLRLSCAASGFTFRSFGMSWVRQAPGKGPEWVSSISGSGSDTLYADSVKGRFTISRDNSKNTLYLQMNSLRPEDTALYYCTIGGSLSRSSQGTLVTVSSA 7.96

Origin of values: patent US20240132624A1
